The values you see were collected from paper PMC7082846.

- protocol_details: Caco-2 permeability
- Type: in vitro ADME
- conditions: human
quantity_kind: Papp A→B (×10⁻⁶ cm/s)
# number only, unit ×10⁻⁶ cm/s dropped from output

What measured Papp A→B goes with "O=C(Nc1cccc2ccccc12)c1cc2c(cc1Br)OCO2" ?
14.5

###

- protocol_details: Metabolic stability in mouse liver microsomes
- Format: in vitro ADME
quantity_kind: half-life (min)
Report only the number, with the unit min understood.

What value of half-life has been reported for the following molecule? "O=C(Nc1cccc2ccccc12)c1cc2c(cc1Br)OCO2"
2.21

###

- protocol_details: Metabolic stability in human liver microsomes
- Assay type: in vitro ADME
quantity_kind: half-life (min)
Answer with a number only, understood to be in min.

So what's the measured half-life for this one? "O=C(Nc1cccc2ccccc12)c1cc2c(cc1Br)OCO2"
20
